Literature roundup of KRas (Homo sapiens (Human), UniProt P01116) data, read-out IC50.
Answer with a number only, understood to be in nM.

Field: example entries. Status: answers known.
compound	target.desc	IC50 / nM
Nc1ncccc1CN1CCOc2c(Cl)c(-c3cc(O)cc4ccccc34)cc3nc(OC[C@@]45CCCN4C[C@H](F)C5)nc1c23	KRas (Homo sapiens (Human), UniProt P01116)	4.3
O[C@@H]1C[C@H](O)CN(c2nc(OCC34CCCN3CCC4)nc3c(F)c(-c4cccc5cccc(F)c45)ncc23)C1	KRas (Homo sapiens (Human), UniProt P01116)	1400
Cc1cc(N)nc(-c2c(Cl)c3c4c(nc(OC[C@@H]5CCCN5CC(F)F)nc4c2F)N([C@H](C)c2cccnc2N)CCO3)c1C(F)(F)F (atropisomer, axis not shown)	KRas (Homo sapiens (Human), UniProt P01116)	0.9

Short answer on KRas (Homo sapiens (Human), UniProt P01116) for COCC1CCc2cc3[nH]ncc3c(-c3nccc4c3sc3nc(OC[C@@]56CCCN5C[C@H](F)C6)nc(N5CCOC[C@@](C)(O)C5)c34)c21 (single isomer, unassigned) , IC50: 8.37

Short answer on KRas (Homo sapiens (Human), UniProt P01116) for OCC1CN(c2nc(OCC34CCCN3CCC4)nc3c(F)c(-c4cccc5cccc(F)c45)ncc23)CCC1O (stereo not drawn) , IC50: 9860

###

Literature roundup of KRas (Homo sapiens (Human)) data, read-out IC50.
Criterion: IC50 strictly under 0.03 µM. Met: true. Not met: false.

Illustrative cases are given below, each with its answer.
molecule	category
O=C1NC(=O)C2(CCCN(c3nc(OCC45CCCN4CCC5)nc4c(F)c(-c5cccc6cccc(Cl)c56)ncc34)C2)N1 (stereo not shown)	true
O=c1cc(CNc2nc(OCC34CCCN3CCC4)nc3c(F)c(-c4cccc5cccc(F)c45)ncc23)[nH][nH]1	false
CSc1cncc(CN2CCOc3c(Cl)c(-c4nc(N)cc(C)c4C(F)(F)F)cc4ncnc2c34)c1	false
CCc1c(F)ccc2cc(O)cc(-c3ncc4c(N5CCC[C@@](C)(O)C5)nc(OC[C@]56CCCN5[C@H](COC(=O)N(C)C)CC6)nc4c3F)c12	true
C[C@@]1(O)COCCN(c2nc(OC[C@@]34CCCN3C[C@H](F)C4)nc3sc4c(-c5c6c(cc7[nH]ncc57)CCC6C#N)nccc4c23)C1 (stereo partly shown)	false

[ask] I'd appreciate it if you could check whether CNS(=O)(=O)C1CCCN(c2nc(OCC34CCCN3CCC4)nc3c(F)c(-c4cccc5cccc(F)c45)ncc23)C1 (stereo not shown) has IC50 smaller than 0.03 µM.
[reply] false

[ask] I'd appreciate it if you could check whether Cc1cc(N)nc(-c2c(Cl)c3c4c(nc(OCC5CCCN(C)C5)nc4c2F)N([C@H](C)c2cccnc2N)CCO3)c1C(F)(F)F (stereo partly shown) has IC50 smaller than 0.03 µM.
[reply] true

[ask] I'd appreciate it if you could check whether "C#Cc1c(Cl)cc2[nH]ncc2c1-c1nccc2c1sc1nc(OC[C@@]34CCCN3C[C@H](F)C4)nc(N3CCOC[C@@](C)(O)C3)c12" has IC50 smaller than 0.03 µM.
[reply] true

[ask] I'd appreciate it if you could check whether C=CC(=O)N1CCC(c2nc3cc(Cl)c(-c4cccc5ncccc45)cc3c(=O)[nH]2)C1 (stereo not shown) has IC50 smaller than 0.03 µM.
[reply] false

[ask] I'd appreciate it if you could check whether Cc1cc(N)nc(-c2c(Cl)c3c4c(nc(OC[C@@]56CCCN5C[C@H](F)C6)nc4c2F)N([C@H](C)c2nccnc2N)CCO3)c1C(F)(F)F (atropisomer, axis not shown; (aS)) has IC50 smaller than 0.03 µM.
[reply] true

[ask] I'd appreciate it if you could check whether "Fc1c(-c2cccc3cccc(F)c23)ncc2c(NCc3cnn4c3OCCC4)nc(OCC34CCCN3CCC4)nc12" has IC50 smaller than 0.03 µM.
[reply] false

[ask] I'd appreciate it if you could check whether "Fc1c(-c2cccc3cccc(F)c23)ncc2c(NCCc3c[nH]nn3)nc(OCC34CCCN3CCC4)nc12" has IC50 smaller than 0.03 µM.
[reply] false

[ask] I'd appreciate it if you could check whether C=CC(=O)N1CCC(c2nc3ccc(-c4c(O)cccc4F)nc3c(=O)[nH]2)C1 (stereo not shown) has IC50 smaller than 0.03 µM.
[reply] false

###

pIC50: −log10 of the molar value.
Literature roundup of KRas (Homo sapiens (Human)) data, read-out pIC50.
Returns one of Satisfied or Not satisfied; Satisfied when pIC50 is >= 7.

Illustrative cases are given below, each with its answer.
molecule	category
CCc1cccc2cccc(-c3ncc4c(N5CC6CC(O)C(C6)C5)nc(OCC56CCCN5CCC6)nc4c3F)c12 (centres unmarked)	Not satisfied
NC(=O)CCNc1nc(OCC23CCCN2CCC3)nc2c(F)c(-c3cccc4cccc(F)c34)ncc12	Not satisfied
CSc1cccc2cccc(-c3ncc4c(N5CCCC6(CC(=O)N6)C5)nc(OCC56CCCN5CCC6)nc4c3F)c12 (centres unmarked)	Not satisfied
COc1nc2c3c(c(Cl)c(-c4nc(N)cc(C)c4C(F)(F)F)c(F)c3n1)OCCN2[C@H](C)c1cccnc1N (atropisomer, axis not shown)	Satisfied

[ask] Tell me whether pIC50 is at least 7 here: Cc1cc(N)nc(-c2c(Cl)c3c4c(nc(OC[C@@H]5CC[C@H]6COCCN65)nc4c2F)N([C@H](C)c2ccnnc2N)CCO3)c1C(F)(F)F (atropisomer, axis not shown; (aS))
[reply] Satisfied

[ask] Tell me whether pIC50 is at least 7 here: Cc1cc(N)nc(-c2c(Cl)c3c4c(nc(OC[C@@]56CCCN5C[C@H](F)C6)nc4c2F)N([C@H](C)c2cccnc2N)CCO3)c1C(F)(F)F (atropisomer, axis not shown; (aS))
[reply] Not satisfied

[ask] Tell me whether pIC50 is at least 7 here: "Cc1cc2[nH]ncc2c(-c2nccc3c2sc2nc(OC[C@@]45CCCN4C[C@H](F)C5)nc(N)c23)c1C(F)(F)F"
[reply] Not satisfied

[ask] Tell me whether pIC50 is at least 7 here: NC(=O)C1CCCN(c2nc(OCC34CCCN3CCC4)nc3c(F)c(-c4cccc5cccc(F)c45)ncc23)C1 (centres unmarked)
[reply] Not satisfied

###

Literature roundup of KRas (Homo sapiens (Human)) data, read-out IC50.
Answer with a number only, understood to be in nM.

molecule	target.desc	IC50 / nM
Cc1cc(N)nc(-c2cc3ncnc4c3c(c2Cl)OCCN4C(c2cccnc2N)C(F)(F)F)c1C(F)(F)F (stereo not shown)	KRas (Homo sapiens (Human))	510
Fc1c(-c2cccc3cccc(F)c23)ncc2c(NCCNc3cccnc3)nc(OCC34CCCN3CCC4)nc12	KRas (Homo sapiens (Human))	16900
Cc1cc(N)nc(-c2cc3nc(OCC4(C)CS(=O)(=O)C4)nc4c3c(c2Cl)OCCN4Cc2cccnc2N)c1C(F)(F)F	KRas (Homo sapiens (Human))	130
Cc1cc2[nH]ncc2c(-c2nccn3c2c(C)c2nc(OC[C@@]45CCCN4C[C@H](F)C5)nc(N4CCOC[C@@](C)(O)C4)c23)c1C1CC1	KRas (Homo sapiens (Human))	113
CC(=O)Nc1cc2n(n1)CCCN(c1nc(OCC34CCCN3CCC4)nc3c(F)c(-c4cccc5cccc(F)c45)ncc13)C2	KRas (Homo sapiens (Human))	24300

Short answer on KRas (Homo sapiens (Human)) for C[C@@]1(O)COCCN(c2nc(OC[C@@]34CCCN3C[C@H](F)C4)nc3sc4c(-c5c6c(cc7[nH]ncc57)CCC6C5CC5)nccc4c23)C1 (stereo partly shown) , IC50: 71.5

Short answer on KRas (Homo sapiens (Human)) for "Cc1cc(N)nc(-c2cc3ncnc4c3c(c2Cl)OCCN4Cc2cc(Cl)cnc2N)c1C(F)(F)F" , IC50: 9600

###

Literature roundup of UniProt:P01116 data, read-out pIC50.
Expect pIC50 as a plain number equal to -log10 of the molar concentration.

Field: example entries. Status: answers known.
compound	pIC50
CC1(O)CCCN(c2nc(OCC34CCCN3CCC4)nc3c(F)c(-c4cccc5cccc(F)c45)ncc23)C1 (stereo not shown)	6.02
Cc1cc(N)nc(-c2cc3ncnc4c3c(c2Cl)OCCN4C(C)(C)c2cccnc2N)c1C(F)(F)F	5.85
COC1c2c(cc3[nH]ncc3c2-c2nccc3c2sc2nc(OC[C@@]45CCCN4C[C@H](F)C5)nc(N4CCOC[C@@](C)(O)C4)c23)CC1(F)F (stereo partly shown)	7.32
CCc1cccc2cccc(-c3ncc4c(N5CCOCC(CO)C5)nc(OCC56CCCN5CCC6)nc4c3F)c12 (stereo not shown)	6.09
CC(=O)N1CC(Nc2nc(OC[C@@]34CCCN3C[C@H](F)C4)nc3sc4c(-c5c(C(F)(F)F)c(C)cc6[nH]ncc56)nccc4c23)C1	6.36

Short answer on UniProt:P01116 for "Cn1cc(CNc2nc(OCC34CCCN3CCC4)nc3c(F)c(-c4cccc5cccc(F)c45)ncc23)ccc1=O" , pIC50: 5.14

Short answer on UniProt:P01116 for "Cc1cc(N)nc(-c2cc3nc(OC[C@@]45CCCN4CC4(C5)OCCO4)nc4c3c(c2Cl)OCCN4Cc2cccnc2N)c1C(F)(F)F" , pIC50: 9.20
